- tested_target: human 5-lipoxygenase enzyme (Homo sapiens)
- Construct: endogenous in cells; host or cells: human whole blood (leukocytes) stimulated with A23187
- Sequence (P09917 whole entry): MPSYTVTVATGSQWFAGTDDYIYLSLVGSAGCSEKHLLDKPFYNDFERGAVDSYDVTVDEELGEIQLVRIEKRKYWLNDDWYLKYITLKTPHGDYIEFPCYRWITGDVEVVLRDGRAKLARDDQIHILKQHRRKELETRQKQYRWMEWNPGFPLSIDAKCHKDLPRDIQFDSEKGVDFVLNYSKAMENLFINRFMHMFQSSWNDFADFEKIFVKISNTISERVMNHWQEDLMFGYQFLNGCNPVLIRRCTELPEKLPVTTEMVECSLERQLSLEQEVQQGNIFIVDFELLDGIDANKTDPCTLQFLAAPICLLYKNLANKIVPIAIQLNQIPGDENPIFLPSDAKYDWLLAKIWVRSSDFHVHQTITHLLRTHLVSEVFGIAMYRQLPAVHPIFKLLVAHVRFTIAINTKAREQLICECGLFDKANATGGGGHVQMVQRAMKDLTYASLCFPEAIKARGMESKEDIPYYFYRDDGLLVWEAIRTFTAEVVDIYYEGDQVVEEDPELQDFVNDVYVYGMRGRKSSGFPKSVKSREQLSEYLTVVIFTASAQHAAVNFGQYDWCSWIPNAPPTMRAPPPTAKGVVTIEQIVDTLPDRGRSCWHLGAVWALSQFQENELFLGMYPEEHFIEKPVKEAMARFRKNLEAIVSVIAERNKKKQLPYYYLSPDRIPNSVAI
- experiment_summary: Inhibition of LTB4 production in human whole blood
- Format: cell-based
- run_parameters: human whole blood, calcium ionophore A23187 50 μM, LTB4 by EIA; read-out: HWB IC50
pIC50: −log10 of the molar value.

{"compound": "COC(=O)c1cc(C#CCCN(O)C(N)=O)ccc1OCCN1CCN([C@H](c2ccccc2)c2ccc(Cl)cc2)CC1 [Compound 36]", "pIC50": 7.03}
{"compound": "NC(=O)c1cc(CCCCN(O)C(N)=O)ccc1OCCN1CCN([C@H](c2ccccc2)c2ccc(Cl)cc2)CC1 [Compound 42]", "pIC50": 6.97}
{"compound": "NC(=O)N(O)CCCCc1ccc(OCCN2CCN([C@H](c3ccccc3)c3ccc(Cl)cc3)CC2)cc1 [Compound 17]", "pIC50": 6.60}
{"compound": "NC(=O)N(O)Cc1ccc(OCCN2CCN([C@H](c3ccccc3)c3ccc(Cl)cc3)CC2)cc1 [Compound 1]", "pIC50": 5.82}
{"compound": "NC(=O)N(O)CCC#Cc1ccc(OCCN2CCN(C(c3ccc(F)cc3)c3ccc(F)cc3)CC2)cc1[N+](=O)[O-] [Compound 87]", "pIC50": 6.60}
{"compound": "NC(=O)N(O)Cc1ccc(C#CCN2CCN([C@H](c3ccccc3)c3ccc(Cl)cc3)CC2)cc1 [Compound 3]", "pIC50": 5.77}
{"compound": "NC(=O)N(O)CC#CCN1CCN([C@H](c2ccccc2)c2ccc(Cl)cc2)CC1 [Compound 9]", "pIC50": 5.37}
{"compound": "NC(=O)N(O)CC#CCN1CCN(C(c2ccc(F)cc2)c2ccc(F)cc2)CC1 [Compound 16]", "pIC50": 5.58}
{"compound": "NC(=O)N(O)CCC#Cc1cccc(OCCN2CCN([C@H](c3ccccc3)c3ccc(Cl)cc3)CC2)c1 [Compound 23]", "pIC50": 6.54}
{"compound": "NC(=O)N(O)Cc1ccc(CCCN2CCN([C@H](c3ccccc3)c3ccc(Cl)cc3)CC2)cc1 [Compound 13]", "pIC50": 5.61}
{"compound": "NC(=O)N(O)CCC#Cc1ccc(OCCCCN2CCN(C(c3ccc(F)cc3)c3ccc(F)cc3)CC2)cc1 [Compound 80]", "pIC50": 7.11}
